Consider the following compounds; for each one, report its Emax.
target: androgen receptor (MBP-hAR-LBD, rat androgen ligand binding domain) (Rattus norvegicus (Rat), UniProt P15207); assay: Androgen receptor fluorescence polarization assay; conditions: read-out: % Max
Sequence (P15207 651-882): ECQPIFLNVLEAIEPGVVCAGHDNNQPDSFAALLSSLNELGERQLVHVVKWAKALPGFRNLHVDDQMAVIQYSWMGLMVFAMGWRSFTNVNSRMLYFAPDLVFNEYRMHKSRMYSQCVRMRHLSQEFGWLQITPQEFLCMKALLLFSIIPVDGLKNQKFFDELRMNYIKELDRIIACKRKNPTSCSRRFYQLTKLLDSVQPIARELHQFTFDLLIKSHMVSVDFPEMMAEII
Write the value in % as a bare number.

The compound listed as C[C@H](CS(C)(=O)=O)n1ccc2c(C(F)(F)F)c(C#N)ccc21 shows Emax equal to 91

Summary for this compound, C[C@H](n1ccc2c(C(F)(F)F)c(C#N)ccc21)C(C)(C)O : Emax is 100

Reported Emax of CC(C)(O)C(C)(C)n1ccc2c(C#N)c(C#N)ccc21 : 105

Please fill in: Emax reported for Cc1cc2c(C(F)(F)F)c(C#N)ccc2n1C(C)CO (stereo not shown) = 100

Please fill in: Emax reported for CCC(C(=O)OC)n1c(C)cc2c(C(F)(F)F)c(C#N)ccc21 (stereo not shown) = 72

Query CCCc1cc2c(C(F)(F)F)c(C#N)ccc2n1CC(C)(C)O yields Emax of 90

What the record says about C[C@@H](n1ccc2c(Cl)c(C#N)ccc21)[C@](C)(O)C(F)(F)F : Emax is 97

Sure, the documented Emax for CSCC(C)n1c(C(F)F)cc2c(C#N)c(C#N)ccc21 (stereo not shown) is 99

Please fill in: Emax reported for C[C@H](n1ccc2c(Cl)c(C#N)ccc21)C(C)(C)O = 78

The reported Emax of the compound C[C@@H](n1ccc2c(C(F)(F)F)c(C#N)ccc21)C(C)(C)O was 100

Each recorded value in this set is attributed to patent US10196353B2.
